Field: IC50. Provide a value for each of the compounds that follow.
Assay: Inhibition of DENV-3 RNA-dependent RNA polymerase
Parameters: species or system dengue virus type 3
Numbers only, in nM.

| Molecule | Test result |
| --- | --- |
| COc1ccc(CC(=O)O)cc1-c1cccs1 | 144 |

// sample `COc1ccc(CC(=O)O)cc1-c1ccsc1` , its IC50 was 205

----------
Test: Binding affinity to DENV-3 RNA-dependent RNA polymerase assessed as dissociation constant incubated for 40 sec by surface plasmon resonance analysis
Design: species or system dengue virus type 3
Field: Kd. Provide a value for each of the compounds that follow.
Give bare numbers, in µM.

| Molecule | Kd, µM |
| --- | --- |
| COc1ccc(CC(=O)O)cc1-c1ccsc1 | 67 |

// sample `COc1ccc(CC(=O)O)cc1-c1cccs1` , its Kd was 29

----------
Tested on: dengue virus type 3
Assay: Antiviral activity against DENV-3 RNA-dependent RNA polymerase infected in African green monkey Vero cells assessed as reduction in viral replication incubated for 2 days by qRT-PCR analysis
Type: functional, organism-based
Conditions: 48 h
Field: pEC50. Provide a value for each of the compounds that follow.
One number for each entry, as −log10 of the molar value.

| Molecule | Test result |
| --- | --- |
| C[C@@]1(O)[C@H](O)[C@@H](CO)O[C@H]1n1cc(F)c2c(N)ncnc21 | 6.07 |

Now examine the next entry.
// sample `C[C@@]1(O)[C@H](O)[C@@H](CO)O[C@H]1n1ccc(N)nc1=O` , its pEC50 was 5.62

----------
Tested on: Dengue virus
Test: Antiviral activity DENV infected in African green monkey Vero 76 cells assessed as virus-induced cytopathic effect
Assay type: functional, organism-based
Outcome measure: pEC50
Numbers only, as −log10 of the molar value.

// sample `COc1nc(N)ncc1-c1cn(COCCO)cn1` , its pEC50 was 7.24

----------
Biological target: Nonstructural protein 5 (Dengue virus)
Sequence (V5TFZ2 whole entry): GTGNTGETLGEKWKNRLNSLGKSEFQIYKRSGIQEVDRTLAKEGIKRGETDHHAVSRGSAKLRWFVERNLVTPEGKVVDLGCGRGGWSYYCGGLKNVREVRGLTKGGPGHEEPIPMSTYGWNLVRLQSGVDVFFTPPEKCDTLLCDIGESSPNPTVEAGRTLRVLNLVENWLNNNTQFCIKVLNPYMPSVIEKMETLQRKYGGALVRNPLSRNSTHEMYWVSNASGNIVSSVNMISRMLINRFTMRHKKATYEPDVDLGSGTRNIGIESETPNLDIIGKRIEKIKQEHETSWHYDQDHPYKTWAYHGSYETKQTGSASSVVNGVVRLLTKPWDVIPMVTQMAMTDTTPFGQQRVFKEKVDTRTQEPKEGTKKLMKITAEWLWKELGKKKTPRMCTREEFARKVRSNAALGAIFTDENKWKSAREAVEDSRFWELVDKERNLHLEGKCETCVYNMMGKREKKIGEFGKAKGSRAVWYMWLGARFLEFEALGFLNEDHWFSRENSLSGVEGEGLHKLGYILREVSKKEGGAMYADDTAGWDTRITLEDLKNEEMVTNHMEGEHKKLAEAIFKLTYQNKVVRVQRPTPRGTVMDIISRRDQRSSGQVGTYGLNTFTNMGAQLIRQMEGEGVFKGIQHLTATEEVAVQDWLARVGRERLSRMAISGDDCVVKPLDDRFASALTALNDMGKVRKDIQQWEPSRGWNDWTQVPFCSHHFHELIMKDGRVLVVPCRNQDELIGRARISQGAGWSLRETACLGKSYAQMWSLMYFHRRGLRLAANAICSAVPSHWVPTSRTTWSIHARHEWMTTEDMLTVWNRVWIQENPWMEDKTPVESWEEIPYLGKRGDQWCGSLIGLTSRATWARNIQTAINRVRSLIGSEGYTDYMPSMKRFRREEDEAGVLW
Test: Inhibition of full length His-tagged DENV-2 NS5 incubated for 1 hr
Set-up: species or system dengue virus type 2
Outcome measure: IC50 (µM)
Give bare numbers, in µM.

Below is a list of compounds. For each, state its recorded IC50.
1. O=C1N/C(=N\c2nnc(-c3cccc(F)c3)s2)S/C1=C\c1cccc(F)c1
2. O=C1N/C(=N\c2nnc(-c3ccccc3Cl)s2)S/C1=C\c1cccc(F)c1

Reply:
[2.3, 2.1]

----------
Test: Inhibition of DENV RNA-dependent RNA polymerase
Design: species or system dengue virus type 1
Outcome measure: IC50 (µM)
One number for each entry, in µM.

// sample `Nc1cc(C(F)(F)F)ccc1NC(=O)Nc1cccc(S(=O)(=O)Nc2ccc(C(=O)O)cc2)c1` , its IC50 was 91

----------
Field: pEC50. Provide a value for each of the molecules that follow.
System: dengue virus type 2
Experiment: Antiviral activity against DENV-2 RNA-dependent RNA polymerase infected in African green monkey Vero cells assessed as reduction in viral replication incubated for 2 days by qRT-PCR analysis
Assay type: functional, organism-based
Conditions: 48 h
Answers are plain numbers, as −log10 of the molar value.

| Molecule | Outcome measure | Test result |
| --- | --- | --- |
| C[C@@]1(O)[C@H](O)[C@@H](CO)O[C@H]1n1cc(F)c2c(N)ncnc21 | pEC50 | 6.34 |

Now examine the next entry.
// sample `C[C@@]1(O)[C@H](O)[C@@H](CO)O[C@H]1n1ccc(N)nc1=O` , its pEC50 was 5.55
